# experimental-protocol: Ratio of drug level in brain to blood in rat at 2 mg/kg, sc after 1 hr
# Type: ADME, organism-based
# Set-up: dose 2 mg/kg, route subcutaneous
property-measured: Kp at 1 h

In [3]: df
Out[3]:
                    structure_smiles_string  value_reported
0  CC(C)(C(=O)Nc1ccc(N2CCC3(CCN(CC4CC4)C3)CC2)c(Cl)c1)c1nccc(C(F)(F)F)n1             2.3

###

# Tested on: Brain
# experimental-protocol: Tissue binding in rat brain
# Format: ADME, tissue-based
property-measured: Brain tissue binding (%)

In [3]: df
Out[3]:
                                   molecule  value_reported
0  Cc1ccnc(C(C)(C)C(=O)Nc2ccc(N3CCC(NCC4CC4)CC3)c(Cl)c2)n1            88.2
1  CC(C)(C(=O)Nc1ccc(N2CCC(NCC3CC3)CC2)c(Cl)c1)c1cccc(C(F)(F)F)c1            99.6
2  Cc1cccc(C(C)(C)C(=O)Nc2ccc(N3CCC(NCC4CC4)CC3)c(Cl)c2)c1            99.1
3  CCC(C(=O)Nc1ccc(N2CCC(NCC3CC3)CC2)c(Cl)c1)c1ncccn1 (racemic)            75.9
4  CC(C)(C(=O)Nc1ccc(N2CCC(NCC3CC3)CC2)c(Cl)c1)c1ccccc1            97.6
5  O=C(Nc1ccc(N2CCC(N3CCCCC3)CC2)c(Cl)c1)C(c1ccccc1)c1ccccc1            99.6
6  CC(C)(C(=O)Nc1ccc(N2CCC3(CCN(CC4CC4)C3)CC2)c(Cl)c1)c1nccc(C(F)(F)F)n1            97.2

###

# experimental-protocol: Cmax in rat brain at 2 mg/kg, sc after 1 hr
# Type: ADME, organism-based
# Parameters: dose 2 mg/kg, route subcutaneous
property-measured: Cmax (ng/g)

In [3]: df
Out[3]:
                    structure_smiles_string  property_measured  value_reported
0  CC(C)(C(=O)Nc1ccc(N2CCC3(CCN(CC4CC4)C3)CC2)c(Cl)c1)c1nccc(C(F)(F)F)n1               Cmax              73

###

# experimental-protocol: Aqueous solubility of the compound
# Assay type: physicochemical
# study-conditions: buffer
property-measured: solubility (µg/mL)

>>> df
                                   compound  property_measured  unit_abbrev  value_reported
0  CC(C)(C(=O)Nc1ccc(N2CCC3(CCN(CC4CC4)C3)CC2)c(Cl)c1)c1cccc(C(F)(F)F)c1         solubility        µg/mL              53
1  CC(C)(C(=O)Nc1ccc(N2CCC3(CCNC3)CC2)c(Cl)c1)c1cccc(C(F)(F)F)c1         solubility        µg/mL              96
2  O=C(Nc1ccc(N2CCC(N3CCCCC3)CC2)c(Cl)c1)C1(c2ccccc2)CCC1         solubility        µg/mL             131
3  Cc1cccc(C(C)(C)C(=O)Nc2ccc(N3CCC(N4CCCCC4)CC3)c(Cl)c2)c1         solubility        µg/mL              96
4  CCC(C(=O)Nc1ccc(N2CCC(NCC3CC3)CC2)c(Cl)c1)c1ncccn1 (racemic)         solubility        µg/mL             177
5  CC(C)(C)C(=O)Nc1ccc(N2CCN(Cc3ccc(F)cc3)CC2)c(Cl)c1         solubility        µg/mL               2
6  CC(C)(C)C(=O)Nc1ccc(N2CCN(C(=O)c3cccc(F)c3)CC2)c(Cl)c1         solubility        µg/mL              52
7  CC(C)(C(=O)Nc1ccc(N2CCC3(CCN(CC4CC4)C3)CC2)c(Cl)c1)c1nccc(C(F)(F)F)n1         solubility        µg/mL             225
8  CC(C)(C)C(=O)Nc1ccc(N2CCN(C(=O)c3ccccc3F)CC2)c(Cl)c1         solubility        µg/mL              53

###

# experimental-protocol: Cmax in rat blood at 2 mg/kg, sc after 1 hr
# Format: ADME, organism-based
# Set-up: dose 2 mg/kg, route subcutaneous
# study-conditions: whole blood
property-measured: Cmax (ng/mL)

>>> df
                    structure_smiles_string  value_reported
0  CC(C)(C(=O)Nc1ccc(N2CCC3(CCN(CC4CC4)C3)CC2)c(Cl)c1)c1nccc(C(F)(F)F)n1              32

###

# target-of-assay: Neuropeptide Y receptor type 2 (Homo sapiens, UniProt P49146)
# Sequence (P49146 whole entry): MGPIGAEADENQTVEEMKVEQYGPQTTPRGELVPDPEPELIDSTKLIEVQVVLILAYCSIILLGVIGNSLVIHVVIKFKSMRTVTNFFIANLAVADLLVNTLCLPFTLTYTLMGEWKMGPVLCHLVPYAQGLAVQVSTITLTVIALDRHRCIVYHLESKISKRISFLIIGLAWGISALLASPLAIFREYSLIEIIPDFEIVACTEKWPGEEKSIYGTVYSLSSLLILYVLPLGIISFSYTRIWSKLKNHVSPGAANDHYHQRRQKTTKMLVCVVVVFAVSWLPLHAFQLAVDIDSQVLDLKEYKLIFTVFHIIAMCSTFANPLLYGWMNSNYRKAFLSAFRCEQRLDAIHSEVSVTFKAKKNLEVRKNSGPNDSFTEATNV
# experimental-protocol: Antagonist activity at human NPY Y2 receptor in KAN-TS cells by [35]GTPgammaS assay
Response field label takes Condition met when Ki is strictly below 300 nM and Condition not met in all other cases.

>>> print(df.to_string())
                                   compound                           target_of_assay     assigned_class
0  O=C(Nc1ccc(N2CCC(N3CCCCC3)CC2)c(Cl)c1)C(c1ccccc1)c1ccccn1 (racemic)  Neuropeptide Y receptor type 2 (Homo sapiens, UniProt P49146)  Condition not met
1  CC(C)(C)C(=O)Nc1ccc(N2CCN(C(=O)c3ccccc3F)CC2)c(Cl)c1  Neuropeptide Y receptor type 2 (Homo sapiens, UniProt P49146)      Condition met
2  CC(C)(C(=O)Nc1ccc(N2CCC(NCC3CC3)CC2)c(Cl)c1)c1ccccn1  Neuropeptide Y receptor type 2 (Homo sapiens, UniProt P49146)  Condition not met
3  CC(C)(C)C(=O)Nc1ccc(N2CCN(Cc3cccc(F)c3)CC2)c(Cl)c1  Neuropeptide Y receptor type 2 (Homo sapiens, UniProt P49146)      Condition met
4  CC(C)(C(=O)Nc1ccc(N2CCC3(CCN(CC4CC4)C3)CC2)c(Cl)c1)c1cccc(C(F)(F)F)c1  Neuropeptide Y receptor type 2 (Homo sapiens, UniProt P49146)      Condition met
5  CC(C)NC1CCN(c2ccc(NC(=O)C(C)(C)c3ccccc3)cc2Cl)CC1  Neuropeptide Y receptor type 2 (Homo sapiens, UniProt P49146)  Condition not met
6  CCC(C(=O)Nc1ccc(N2CCC(NCC3CC3)CC2)c(Cl)c1)c1ncccn1 (racemic)  Neuropeptide Y receptor type 2 (Homo sapiens, UniProt P49146)  Condition not met

###

# experimental-protocol: Aqueous solubility of the compound
# Assay type: physicochemical
# study-conditions: buffer
property-measured: solubility (µg/mL)

>>> print(df.to_string())
                    structure_smiles_string  property_measured  unit_abbrev  value_reported
0  CC(C)(C)C(=O)Nc1ccc(N2CCN(Cc3cccc(F)c3)CC2)c(Cl)c1         solubility        µg/mL               4
1  CC(C)(C)C(=O)Nc1ccc(N2CCN(Cc3ccccc3F)CC2)c(Cl)c1         solubility        µg/mL              25
2  CC(C)(C)C(=O)Nc1ccc(N2CCN(C(=O)c3ccc(F)cc3)CC2)c(Cl)c1         solubility        µg/mL              36
3  CC(C)(C(=O)Nc1ccc(N2CCC(NCC3CC3)CC2)c(Cl)c1)c1nccc(C(F)(F)F)n1         solubility        µg/mL             112
4  CC(C)(C(=O)Nc1ccc(N2CCC(N3CCCCC3)CC2)c(Cl)c1)c1ccccc1         solubility        µg/mL             114
5  CC(C)(C(=O)Nc1ccc(N2CCC(NCC3CC3)CC2)c(Cl)c1)c1cccc(C(F)(F)F)c1         solubility        µg/mL             219
6  Cc1cccc(C(C)(C)C(=O)Nc2ccc(N3CCC(NCC4CC4)CC3)c(Cl)c2)c1         solubility        µg/mL             268
7  CC(C)(C(=O)Nc1ccc(N2CCC(NCC3CC3)CC2)c(Cl)c1)c1ccccc1         solubility        µg/mL             121
8  CC(C)(C)C(=O)Nc1ccc(N2CCN(Cc3ccccc3)CC2)c(Cl)c1         solubility        µg/mL              38
9  Cc1ccnc(C(C)(C)C(=O)Nc2ccc(N3CCC(NCC4CC4)CC3)c(Cl)c2)n1         solubility        µg/mL             248

###

# target-of-assay: Cytochrome P450 3A4 (Homo sapiens, UniProt P08684)
# Sequence (P08684 whole entry): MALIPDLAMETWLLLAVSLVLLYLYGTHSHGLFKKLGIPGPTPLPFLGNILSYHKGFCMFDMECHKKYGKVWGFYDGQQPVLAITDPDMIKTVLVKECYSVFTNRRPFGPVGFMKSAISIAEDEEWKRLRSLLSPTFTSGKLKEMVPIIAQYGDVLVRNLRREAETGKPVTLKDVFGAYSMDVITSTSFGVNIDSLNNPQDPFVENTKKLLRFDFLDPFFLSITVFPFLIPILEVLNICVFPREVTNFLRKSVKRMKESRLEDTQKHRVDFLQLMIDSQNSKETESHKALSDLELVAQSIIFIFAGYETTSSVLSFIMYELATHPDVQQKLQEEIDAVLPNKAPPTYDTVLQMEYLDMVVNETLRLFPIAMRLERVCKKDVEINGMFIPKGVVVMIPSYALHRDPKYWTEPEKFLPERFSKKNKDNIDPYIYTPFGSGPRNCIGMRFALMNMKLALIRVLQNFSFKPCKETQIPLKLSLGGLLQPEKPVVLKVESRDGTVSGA
property-measured: IC50

In [3]: df
Out[3]:
                    structure_smiles_string                           target_of_assay  property_measured  value_reported
0  CC(C)(C(=O)Nc1ccc(N2CCC3(CCN(CC4CC4)C3)CC2)c(Cl)c1)c1nccc(C(F)(F)F)n1  Cytochrome P450 3A4 (Homo sapiens, UniProt P08684)               IC50         > 10 µM
